Taken from patent US8329704B2.

TEST_TARGET: human MCH-1 receptor (Homo sapiens)
Construct: expressed in transfected cells
PROCEDURE_SUMMARY: Ca2+ mobilization experiment for the MCH-1 receptor (FLIPR), inhibition of MCH-induced Ca2+ mobilization
Type: cell-based
COND: CHO cells stably expressing human MCH-1 receptor, inhibition of MCH-induced Ca2+ response, read-out: MCH-1 pIC50 (converted)
READOUT_LABEL: IC50 (nM)
Form entry: value (nM) — number only.

Data request: Request body: readout IC50, system human MCH-1 receptor (Homo sapiens), query COc1cc(-n2ccnc(NCCOc3ccccc3)c2=O)ccc1OCCNCCO . Return the value.
Data returned: 200

Data request: For the record COc1cc(-n2ccnc(NCCOc3ccccc3)c2=O)ccc1OCCCN1CCCC(CO)C1 (stereo not shown) , what value of IC50 is listed for human MCH-1 receptor (Homo sapiens)?
Data returned: 79.4

Data request: What IC50 appears in the records for this molecule with human MCH-1 receptor (Homo sapiens)? COc1cc(-n2ccnc(NCCOc3ccccc3)c2=O)ccc1OCCNC1CC1
Data returned: 63.1

Data request: Form field: IC50 recorded for COc1cc(-n2ccnc(NCCc3ccccc3)c2=O)ccc1OCCN1CCOC[C@H]1C with human MCH-1 receptor (Homo sapiens) (enter value)
Data returned: 79.4

Data request: What is its IC50 for human MCH-1 receptor (Homo sapiens)? Entry: COc1cc(-n2ccnc(NCCc3ccccc3)c2=O)ccc1OCCCN1CCC(F)(F)CC1
Data returned: 31.6

Data request: For human MCH-1 receptor (Homo sapiens), provide IC50 of COc1cc(-n2ccnc(NCCc3ccccc3)c2=O)ccc1NCCCN1CCOCC1 please.
Data returned: 63.1

Data request: Item: NC(=O)c1cc(-n2ccnc(NCCOc3ccccc3)c2=O)ccc1OCCN1CCCC1 Test system: human MCH-1 receptor (Homo sapiens) Read-out: IC50 Value: ?
Data returned: 1000

Data request: Requested read-out IC50, target or system human MCH-1 receptor (Homo sapiens), entry COc1cc(-n2ccnc(NCCOc3ccccc3)c2=O)ccc1OCCCN1CCC(F)(F)CC1
Data returned: 39.8

---

Counter-ions that a name gives are not always drawn.
The entries below are paired with their reported melting point.
Answer format: numeric, °C implied, no suffix.

Answered examples (5):
CC(=O)N(C)CCOc1ccc(-n2ccnc(NCCOc3ccccc3)c2=O)cc1 ... 105.9
O=c1c(NCCOc2ccccc2)nccn1-c1ccc(OCCN2CCOCC2)cc1 ... 138.1
COc1cc(-n2ccnc(SCCc3ccccc3)c2=O)ccc1OCCN1CCCC1 ... 79.4
COc1cc(-n2ccnc(NCCOc3ccccc3)c2=O)ccc1OCCN1CCC(F)CC1 (as salt: HCl) ... 234.9
COc1cc(-n2ccnc(NCCc3ccccc3)c2=O)ccc1OC1CCNC1 (stereo not drawn) ... 151.6

Data request: Value lookup for melting point; key = O=c1c(NCCc2ccccc2)nccn1-c1ccc(OCCN2CCCC2)c(Cl)c1
Data returned: 120.2

Data request: Field request: melting point | item: O=c1c(NCCc2ccccc2)nccn1-c1ccc(OCCN2CCC(O)CC2)c(Cl)c1
Data returned: 151.2

Data request: Return reported melting point; argument: O=c1c(NCCc2ccccc2)nccn1CCc1ccc(CN2CCCC2)cc1
Data returned: 177

---

TEST_TARGET: human MCH-1 receptor (Homo sapiens, UniProt Q99705)
Construct: expressed in transfected cells
Sequence (Q99705 whole entry): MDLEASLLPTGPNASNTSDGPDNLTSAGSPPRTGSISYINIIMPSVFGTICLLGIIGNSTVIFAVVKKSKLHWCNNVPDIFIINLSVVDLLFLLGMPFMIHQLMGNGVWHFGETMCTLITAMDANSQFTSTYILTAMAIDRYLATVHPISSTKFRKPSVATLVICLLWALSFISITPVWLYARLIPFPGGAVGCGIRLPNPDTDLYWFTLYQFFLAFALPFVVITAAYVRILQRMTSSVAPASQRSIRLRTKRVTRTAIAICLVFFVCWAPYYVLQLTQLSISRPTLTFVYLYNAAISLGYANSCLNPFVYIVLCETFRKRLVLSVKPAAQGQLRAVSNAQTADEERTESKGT
PROCEDURE_SUMMARY: Ca2+ mobilization experiment for the MCH-1 receptor (FLIPR), inhibition of MCH-induced Ca2+ mobilization
Format: cell-based
COND: CHO cells stably expressing human MCH-1 receptor, inhibition of MCH-induced Ca2+ response, read-out: MCH-1 pIC50 (converted)
Protocol: The interaction of the compounds of Formula (I) with MCH-1 receptors was assessed in in vitro transient calcium (Ca^2+) mobilization assays in the fluorimetric imaging plate reader (FLIPR) format (Sullivan et al. 1999, Methods Mol Biol 114:125-133). […] The interaction of the test compounds with the receptor is assessed in competition experiments. […] Data from assays in the presence of compound were calculated as a percentage of total Ca^2+-responses measured in the absence of test compound. […]
READOUT_LABEL: IC50

COc1cc(-n2ccnc(NCCc3ccccc3)c2=O)ccc1OC1CCN(C2CC2)C1 (stereo not shown) [3-33] ... 50.1 nM
CCCN1CCC(Oc2ccc(-n3ccnc(SCCc4ccccc4)c3=O)cc2OC)C1 (stereo not shown) [6-17] ... 15.8 nM
COc1cc(-n2ccnc(NCCc3ccccc3)c2=O)ccc1N1CCC(N2CCOCC2)C1 (stereo not shown) [3-21] ... 79.4 nM
COc1cc(-n2ccnc(N3CCCC(c4ccccc4)C3)c2=O)ccc1OCCN1CCCC1 (stereo not shown) [4-01] ... 1260 nM
COc1cc(-n2ccnc(SCCc3ccccc3)c2=O)ccc1OC1CCNC1 (stereo not shown) [6-14] ... 100 nM
COc1cc(-n2ccnc(SCCc3ccccc3)c2=O)ccc1C=CCN1CCCC1 [6-12] ... 25.1 nM

Data request: Report IC50 for COc1cc(-n2ccnc(NCCc3ccccc3)c2=O)ccc1NCCN1CCCC1 [3-28] please.
Data returned: 126 nM

Data request: I would be grateful if you could share the reported IC50 for O=c1c(NCCOc2ccc(F)cc2)nccn1-c1ccc(OCCN2CCCC2)cc1 [2-17] .
Data returned: 2000 nM

Data request: Endpoint output: IC50 of COc1ccc(CCNc2nccn(-c3ccc(OCCN4CCCC4)c(OC)c3)c2=O)cc1 [2-36] . Value?
Data returned: 50.1 nM

Data request: Bench note: what IC50 did COc1cc(-n2ccnc(CCOc3ccccc3)c2=O)ccc1OCCN1CCCC1 [2-07] show?
Data returned: 79.4 nM

Data request: # get_value(readout='IC50', item= COc1cc(-n2ccnc(NCCc3ccc(C(F)(F)F)cc3)c2=O)ccc1OCCN1CCCC1 [2-34] )
Data returned: 100 nM

Data request: Look up IC50: O=c1c(NCCOc2ccccc2)nccn1-c1ccc(OCCN(CCO)Cc2ccccc2)cc1 [1-33]
Data returned: 794 nM

Data request: GET /values?readout=IC50&item= COc1cc(-n2ccnc(N3CCC(c4ccccc4OC)C3)c2=O)ccc1OCCN1CCCC1 (stereo not shown) [4-06]
Data returned: 6310 nM

Data request: Which IC50 is listed for CCN(C)C1CCN(c2ccc(-n3ccnc(NCCc4ccccc4)c3=O)cc2OC)C1 (stereo not shown) [3-14] ?
Data returned: 50.1 nM
